Attribution: ChEMBL document CHEMBL1157682

Catalogue of molecules with associated pKm
Molecular target: Liver carboxylesterase 1 (Homo sapiens, UniProt P23141)
Sequence (P23141 whole entry): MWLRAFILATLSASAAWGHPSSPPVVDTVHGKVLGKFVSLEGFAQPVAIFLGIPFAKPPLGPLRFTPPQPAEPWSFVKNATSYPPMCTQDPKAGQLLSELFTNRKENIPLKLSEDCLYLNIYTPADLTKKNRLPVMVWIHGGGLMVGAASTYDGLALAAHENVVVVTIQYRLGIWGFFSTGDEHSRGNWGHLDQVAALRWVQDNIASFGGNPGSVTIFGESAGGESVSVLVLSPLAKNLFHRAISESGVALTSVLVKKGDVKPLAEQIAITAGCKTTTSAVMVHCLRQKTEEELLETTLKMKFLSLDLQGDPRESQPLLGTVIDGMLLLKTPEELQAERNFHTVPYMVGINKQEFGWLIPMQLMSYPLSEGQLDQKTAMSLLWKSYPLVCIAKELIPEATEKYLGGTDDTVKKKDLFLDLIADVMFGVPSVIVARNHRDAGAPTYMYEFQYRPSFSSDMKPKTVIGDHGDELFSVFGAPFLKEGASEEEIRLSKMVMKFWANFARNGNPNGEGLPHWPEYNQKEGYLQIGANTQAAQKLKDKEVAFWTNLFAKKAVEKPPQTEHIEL
Test: Activity at human recombinant CES1 expressed in baculovirus-infected Spodoptera frugiperda Sf21 cells assessed as substrate hydrolysis by fluorescence assay
Lab note: record just the number, no unit beside it.

Reference set, count: 2
> print(dat)
                                   molecule  readout.number
1  CCOC(=O)[C@H](CCc1ccccc1)N[C@@H](C)C(=O)N1Cc2ccccc2C[C@H]1C(=O)O            3.87
2  COC(=O)[C@H](c1ccccc1)[C@H]1CCCCN1 [DEXMETHYLPHENIDATE]            4.36

Then this molecule:
Data request: Read off the recorded pKm for CCOC(=O)[C@H](CCc1ccccc1)N[C@@H](C)C(=O)N1C(=O)N(C)C[C@H]1C(=O)O
Data returned: 3.54
